Target: α-glucosidase (Saccharomyces cerevisiae, UniProt P53341)
Sequence (P53341 whole entry): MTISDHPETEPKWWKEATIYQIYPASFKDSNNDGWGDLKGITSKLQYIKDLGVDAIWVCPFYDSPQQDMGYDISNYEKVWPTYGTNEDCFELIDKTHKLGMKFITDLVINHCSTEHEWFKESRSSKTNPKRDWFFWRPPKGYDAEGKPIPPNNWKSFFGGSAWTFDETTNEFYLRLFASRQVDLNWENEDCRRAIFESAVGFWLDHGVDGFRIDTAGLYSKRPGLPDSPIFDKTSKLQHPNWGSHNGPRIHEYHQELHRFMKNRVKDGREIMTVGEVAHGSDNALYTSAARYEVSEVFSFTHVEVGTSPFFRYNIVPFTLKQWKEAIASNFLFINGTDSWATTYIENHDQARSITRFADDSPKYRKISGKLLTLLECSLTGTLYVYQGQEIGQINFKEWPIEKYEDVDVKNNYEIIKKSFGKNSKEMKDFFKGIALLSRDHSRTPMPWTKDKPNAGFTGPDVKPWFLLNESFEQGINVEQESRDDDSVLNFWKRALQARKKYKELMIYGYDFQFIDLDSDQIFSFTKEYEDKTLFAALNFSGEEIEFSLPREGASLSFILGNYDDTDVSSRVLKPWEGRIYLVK
Experiment: Fluorescence quenching, binding and thermodynamics with α-glucosidase
Details: T 298 K
Attribute measured: ΔG^0

Below, 4 compounds whose answers are already recorded.
The recorded ΔG^0 for O=C(O)c1ccc(-c2c3nc(c(-c4ccc(C(=O)O)cc4)c4ccc([nH]4)c(-c4ccc(C(=O)O)cc4)c4nc(c(-c5ccc(C(=O)O)cc5)c5ccc2[nH]5)C=C4)C=C3)cc1.[Cu+2] is -9.192 ± 0.019 kcal/mol

compound Oc1ccc(-c2c3nc(c(-c4ccc(O)cc4)c4ccc([nH]4)c(-c4ccc(O)cc4)c4nc(c(-c5ccc(O)cc5)c5ccc2[nH]5)C=C4)C=C3)cc1 , ΔG^0 observed: -8.439 ± 0.0239 kcal/mol

Note to self: ΔG^0 recorded for O=C(O)c1ccc(-c2c3nc(c(-c4ccc(C(=O)O)cc4)c4ccc([nH]4)c(-c4ccc(C(=O)O)cc4)c4nc(c(-c5ccc(C(=O)O)cc5)c5ccc2[nH]5)C=C4)C=C3)cc1 was -8.368 ± 0.014 kcal/mol

For this compound ( Nc1ccc(-c2c3nc(c(-c4ccc(N)cc4)c4ccc([nH]4)c(-c4ccc(N)cc4)c4nc(c(-c5ccc(N)cc5)c5ccc2[nH]5)C=C4)C=C3)cc1 ), measured ΔG^0 is -7.424 ± 0.019 kcal/mol

In the following, a different compound is considered.
ΔG^0 for O=C(O)c1ccc(-c2c3nc(c(-c4ccc(C(=O)O)cc4)c4ccc([nH]4)c(-c4ccc(C(=O)O)cc4)c4nc(c(-c5ccc(C(=O)O)cc5)c5ccc2[nH]5)C=C4)C=C3)cc1.[Ni+2] is -7.321 ± 0.0311 kcal/mol
